The origin of these recorded values is patent US7928140B2.

Target: PI3K α (Homo sapiens, UniProt P42336)
Construct: Full length p110 subunits of PI3K α, β and δ, N-terminally labeled with polyHis tag; polyHis (N); made in house; host or cells: Sf9 insect cells (baculovirus)
Sequence (P42336 whole entry, species assumed): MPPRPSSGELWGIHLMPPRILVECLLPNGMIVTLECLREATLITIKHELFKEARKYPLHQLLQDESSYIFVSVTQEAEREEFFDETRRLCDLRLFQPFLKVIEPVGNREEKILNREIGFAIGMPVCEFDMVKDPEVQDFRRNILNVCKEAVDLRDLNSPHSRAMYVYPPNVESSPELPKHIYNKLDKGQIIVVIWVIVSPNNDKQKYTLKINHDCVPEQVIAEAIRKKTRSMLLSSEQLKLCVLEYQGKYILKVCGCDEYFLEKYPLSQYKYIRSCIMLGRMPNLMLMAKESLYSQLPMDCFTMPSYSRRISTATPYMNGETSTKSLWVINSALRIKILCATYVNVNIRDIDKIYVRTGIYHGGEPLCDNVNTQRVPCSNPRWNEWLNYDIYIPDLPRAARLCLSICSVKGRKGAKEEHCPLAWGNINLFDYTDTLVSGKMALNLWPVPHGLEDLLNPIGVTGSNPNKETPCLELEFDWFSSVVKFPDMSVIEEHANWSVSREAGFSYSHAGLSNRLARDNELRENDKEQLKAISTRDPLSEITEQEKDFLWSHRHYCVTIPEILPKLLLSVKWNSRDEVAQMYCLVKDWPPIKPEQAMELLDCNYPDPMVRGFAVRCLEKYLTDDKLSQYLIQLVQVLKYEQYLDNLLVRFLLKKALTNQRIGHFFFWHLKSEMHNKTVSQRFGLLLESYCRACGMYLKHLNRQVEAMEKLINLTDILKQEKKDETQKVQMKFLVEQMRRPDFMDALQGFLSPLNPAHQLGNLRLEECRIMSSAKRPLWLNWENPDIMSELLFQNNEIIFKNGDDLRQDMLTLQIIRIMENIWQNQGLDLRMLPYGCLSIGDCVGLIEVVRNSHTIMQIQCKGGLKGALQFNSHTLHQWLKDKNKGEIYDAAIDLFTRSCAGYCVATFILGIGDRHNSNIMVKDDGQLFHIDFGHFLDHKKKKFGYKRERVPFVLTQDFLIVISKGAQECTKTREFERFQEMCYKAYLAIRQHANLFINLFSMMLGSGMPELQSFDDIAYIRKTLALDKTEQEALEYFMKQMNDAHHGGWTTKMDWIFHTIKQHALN
Sequence (P27986 whole entry partner, species assumed): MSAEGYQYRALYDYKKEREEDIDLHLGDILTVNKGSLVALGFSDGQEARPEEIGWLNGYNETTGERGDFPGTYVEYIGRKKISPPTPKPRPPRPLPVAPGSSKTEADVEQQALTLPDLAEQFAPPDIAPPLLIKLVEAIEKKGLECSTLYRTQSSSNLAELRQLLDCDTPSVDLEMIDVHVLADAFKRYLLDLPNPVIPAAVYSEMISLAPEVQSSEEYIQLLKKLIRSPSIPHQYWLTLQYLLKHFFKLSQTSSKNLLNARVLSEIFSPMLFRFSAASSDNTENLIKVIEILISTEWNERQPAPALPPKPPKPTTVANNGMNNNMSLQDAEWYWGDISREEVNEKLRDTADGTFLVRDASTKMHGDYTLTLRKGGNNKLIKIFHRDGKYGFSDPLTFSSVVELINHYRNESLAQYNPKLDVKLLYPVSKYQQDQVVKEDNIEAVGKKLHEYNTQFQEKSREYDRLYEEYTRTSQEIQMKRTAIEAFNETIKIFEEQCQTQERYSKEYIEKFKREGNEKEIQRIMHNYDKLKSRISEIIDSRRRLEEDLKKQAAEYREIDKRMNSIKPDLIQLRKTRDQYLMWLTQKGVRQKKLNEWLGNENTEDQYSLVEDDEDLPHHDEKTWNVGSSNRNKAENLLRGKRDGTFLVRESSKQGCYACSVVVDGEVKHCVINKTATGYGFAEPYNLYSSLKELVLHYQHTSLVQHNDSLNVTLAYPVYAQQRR
Assay: In vitro PI3 kinase enzyme assay (alpha), ATP loss, bioluminescence;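 note: purified p110α/p85 heterodimer acting on PtdIns(4,5)P2 at room temperature, remaining ATP read by luminescence, inhibition scaled between compound-free wells with and without enzyme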
Type: biochemical
Settings: read-out: PI3Kα ATP loss IC50
# if measured IC50 < 900 nM: True  # else: False

[[record]]
compound = "COCCCNc1nccc(-c2ccc3nc(NC(C)=O)sc3c2)n1 [Example 46]"
category = "False"

[[record]]
compound = "COc1ccc(-c2cccc3nc(NC(C)=O)sc23)cc1 [Example 95]"
category = "False"

[[record]]
compound = "CN(C)c1cc(-c2ccc3nc(NS(C)(=O)=O)sc3c2)cnc1Cl [Example 276]"
category = "False"

[[record]]
compound = "CC(=O)Nc1nc2ccc(-c3cncc(NS(=O)(=O)c4ccc(C(F)(F)F)cc4)c3)cc2s1 [Example 196]"
category = "True"


Report whether reported IC50 is lower than 900 nM (strictly) for COc1ccc(S(=O)(=O)Nc2nccc(-c3cc(F)c4nc(NC(C)=O)sc4c3)n2)cc1 [Example 131]
True

Report whether reported IC50 is lower than 900 nM (strictly) for CC(=O)Nc1nc2ccc(-c3ccnc(N(C)S(=O)(=O)c4ccc(C(C)(C)C)cc4)n3)cc2s1 [Example 205]
True

Report whether reported IC50 is lower than 900 nM (strictly) for CC(=O)Nc1nc2ccc(-c3cncc(N(C)S(=O)(=O)c4ccccc4)c3)cc2s1 [Example 224]
True

Report whether reported IC50 is lower than 900 nM (strictly) for CC(=O)Nc1nc2ccc(-c3cncc(OCCN4CCC(C)C4=O)c3)cc2s1 (centres unmarked) [Example 253]
False

Report whether reported IC50 is lower than 900 nM (strictly) for CN(C)CC(=O)Nc1nc2ccc(-c3cnc(Cl)c(N(C)C)c3)cc2s1 [Example 275]
True

Report whether reported IC50 is lower than 900 nM (strictly) for CC(=O)Nc1nc2ccc(-c3cnc(Cl)c(NS(=O)(=O)c4ccsc4)c3)cc2s1 [Example 187]
True

Report whether reported IC50 is lower than 900 nM (strictly) for CC(=O)Nc1nc2c(F)cc(-c3cncc(NS(=O)(=O)c4ccc(C(F)(F)F)cc4)c3)cc2s1 [Example 117]
True

Report whether reported IC50 is lower than 900 nM (strictly) for CC(C)(C)Nc1cc(-c2ccc3nc(N)sc3c2)cnc1Cl [Example 315]
False

Report whether reported IC50 is lower than 900 nM (strictly) for O=S(=O)(Nc1cc(-c2ccc3ncoc3c2)cnc1Cl)c1ccc(F)cc1 [Example 326]
True
